# protocol.details: folding stability dG unfold from trypsin proteolysis; higher = more stable
Classify by measured folding stability dG unfold: Criterion met if it is equal to or exceeds 6 kJ/mol, Criterion not met if it is smaller.

Example results:
{"residue.string": "SAGMPKPVVTPVTLPVNGALITFTVDPEVPLATFTFDEPDVNAVAEEYAKERAAELEKAGIPTKIVPSSAGG [r19_354_JUSTAS]", "group": "Criterion not met"}
{"residue.string": "SAGGSAGGSGYLSQERPVTIKLPNGEVVEVDGVVRESPESDVVTVEIPETGQTIEVPKANVVESAGGSAGGS [r12_772_JUSTAS]", "group": "Criterion not met"}
{"residue.string": "SAGGSAGGMPVEIEILTPDNLLPTFTIPDPEEAEKIKSVEVFGDRFIKITLGDKEIVIEVYPDNSAGGSAGG [r6_206_TrMRF]", "group": "Criterion met"}
{"residue.string": "SAGGVWIEITFLMPAEQLLNFIKNLAEEFGYQVNIDVKIQPYPNGPMVTHEIEIKPLPPKVPEEDQESAGGS [r16_262_TrROS]", "group": "Criterion met"}

## Task Entry SAGGSEALTKNLPGVKEIKIEVEPTEVALSPELAKLLPNLPGVKFTVPSVKIDIKIEYPGTPDGTLSAGGSA [r2_404_TrMRF] : is its folding stability dG unfold no less than 6 kJ/mol?
## Result Criterion not met

## Task Entry SAMKWSEVVVSYPSDRWYAEIYTPGPGGELTSVSYREFDSLEELEQWIEEKAPPGEVEVKREPAPPELLSAG [r14_964_JUSTAS] : is its folding stability dG unfold no less than 6 kJ/mol?
## Result Criterion not met

## Task Assess whether reported folding stability dG unfold for SPGMEPIREWELKLPDPDGEDKDLEVEMYRMPEGNYYVDISIPNGKKIPFPMPPDEPITPDDIRNFIKKFSA [r9_616_TrROS] sits at 6 kJ/mol or higher.
## Result Criterion not met

## Task Form field: folding stability dG unfold at least 6 kJ/mol? Entry: SAGGSAGGSAKLEYDDDYVEIEFKVPDGPIMIYIPDWGWMIWIWPGKEVTIRFPIPKPPDNSAGGSAGGSAG [r3_185_TrROS]
## Result Criterion met
